TARGET DESC: T1, Rb^P K462E (human, UniProt P06400 380-788, K462E)
T1 construct: also called variant 8
T1 sequence (looked up): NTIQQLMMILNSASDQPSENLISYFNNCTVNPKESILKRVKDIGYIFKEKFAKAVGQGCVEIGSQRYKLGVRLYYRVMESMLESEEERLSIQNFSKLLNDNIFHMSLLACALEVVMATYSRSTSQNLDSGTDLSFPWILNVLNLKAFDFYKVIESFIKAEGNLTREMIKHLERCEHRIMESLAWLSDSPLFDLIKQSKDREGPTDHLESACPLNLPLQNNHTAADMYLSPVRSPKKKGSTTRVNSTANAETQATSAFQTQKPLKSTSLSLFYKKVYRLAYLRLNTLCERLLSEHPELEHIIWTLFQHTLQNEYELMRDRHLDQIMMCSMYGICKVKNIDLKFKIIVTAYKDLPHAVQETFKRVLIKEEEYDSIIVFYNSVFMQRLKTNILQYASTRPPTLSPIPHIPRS
EXPERIMENT: fluorescence polarisation; 25 °C; unlabeled Rb^P titrated against 1.5 nM TMR-E2F1^TD or 7.5 nM TMR-E7^LxCxE; 25 mM Tris pH 8.0, 200 mM NaCl, 1 mM DTT, 0.1% Tween-20; 2 min incubation; quadratic fit; apparent Kd for the variants, Kd for WT
STATED CONDITIONS: both partners purified
No end group written: not given here. TMR = tetramethyl rhodamine dye
MEASURED METRIC: Kd (nM)

{TMR}-GEGIRDLFDCDFGDLTPLD (also called E2F^TD; source: synthetic peptide, bought: GenScript) [TMR-E2F1^TD, peptide of the E2F1 transactivation domain]: 27
DLYCYEQLN (also: TMR label, position not given here, source: synthetic peptide, bought: GenScript) [TMR-E7^LxCxE, LxCxE peptide of the E7 oncoprotein from HPV]: 11
